System: pancreatic cancer cells (BxPC3)
Test: In vitro cytotoxicity, CellTiter-Glo 96 h, BxPC3
Conditions: Homo sapiens, BXPC-3, read-out: Cytotoxic potency (IC50 class), BxPC3
pIC50: −log10 of the molar value.
MEASUREMENT_LABEL: pIC50

CCc1c2c(nc3cc4c(cc13)OCO4)-c1cc3c(c(=O)n1C2)COC(=O)[C@]3(O)CC [Compound 6e]	8.00 to 9.00
CCC(CC)Cc1c2c(nc3cc4c(cc13)OCO4)-c1cc3c(c(=O)n1C2)COC(=O)[C@]3(O)CC [Compound 6g]	8.00 to 9.00
CC[C@@]1(O)C(=O)OCc2c1cc1n(c2=O)Cc2c-1nc1cc3c(cc1c2CNCC(C)C)OCO3 [Compound 5i]	8.00 to 9.00
CCCCCCc1c2c(nc3cc4c(cc13)OCO4)-c1cc3c(c(=O)n1C2)COC(=O)[C@]3(O)CC [Compound 6k]	8.00 to 9.00
CC[C@@]1(O)C(=O)OCc2c1cc1n(c2=O)Cc2c-1nc1cc3c(cc1c2CNCCN(C)CCO)OCO3 [Compound 5w]	7.00 to 8.00

Request: Report value only: pIC50, pancreatic cancer cells (BxPC3), CC[C@@]1(O)C(=O)OCc2c1cc1n(c2=O)Cc2c-1nc1cc3c(cc1c2C)OCO3 [Compound 6p]
Result: 9.00 to 10.00

Request: Report value only: pIC50, pancreatic cancer cells (BxPC3), CC[C@@]1(O)C(=O)OCc2c1cc1n(c2=O)Cc2c-1nc1cc3c(cc1c2CNC(=O)CO)OCO3 [Compound 4a]
Result: 7.00 to 8.00

Request: Report value only: pIC50, pancreatic cancer cells (BxPC3), CC[C@@]1(O)C(=O)OCc2c1cc1n(c2=O)Cc2c-1nc1cc3c(cc1c2CN(CCO)CCO)OCO3 [Compound 5p]
Result: 7.00 to 8.00
